- target.desc: Adenosine receptor A2a (Homo sapiens, UniProt P29274)
- Sequence (P29274 whole entry): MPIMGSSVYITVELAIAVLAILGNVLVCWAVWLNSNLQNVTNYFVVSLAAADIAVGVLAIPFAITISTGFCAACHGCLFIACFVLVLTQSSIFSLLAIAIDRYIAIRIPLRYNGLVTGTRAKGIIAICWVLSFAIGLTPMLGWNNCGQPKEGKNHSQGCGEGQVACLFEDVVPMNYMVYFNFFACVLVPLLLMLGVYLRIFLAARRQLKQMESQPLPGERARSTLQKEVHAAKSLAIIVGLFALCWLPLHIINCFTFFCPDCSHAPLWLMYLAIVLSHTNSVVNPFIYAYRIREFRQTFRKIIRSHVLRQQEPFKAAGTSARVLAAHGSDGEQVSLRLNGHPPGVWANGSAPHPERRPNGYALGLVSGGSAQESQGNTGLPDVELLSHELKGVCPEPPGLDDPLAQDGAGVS
- test.method.notes: biochemical
- Description: Binding affinity to human adenosine A2A receptor expressed in CHO cells measured by radioligand binding assay
observable: pKi
Field pKi (float): negative decimal logarithm of the concentration in molar.

Check out these entries, answers already filled in.
[[record]]
substance_smiles = "CCn1c(Br)nc2c(NCCc3ccccc3)cc(N)cc21"
observable = "pKi"
measurement = 6.58

[[record]]
substance_smiles = "N=c1nc(N)c2c(C(F)(F)F)cc(-c3ccccc3)nc2[nH]1"
observable = "pKi"
measurement = 5.44


// query pKi value for entry `O=c1[nH]c(=O)c2c(C(F)(F)F)cc(-c3ccccc3)nc2[nH]1`
6.17

----------
- target.desc: Adenosine receptor A3 (Homo sapiens)
- Sequence (P0DMS8 whole entry): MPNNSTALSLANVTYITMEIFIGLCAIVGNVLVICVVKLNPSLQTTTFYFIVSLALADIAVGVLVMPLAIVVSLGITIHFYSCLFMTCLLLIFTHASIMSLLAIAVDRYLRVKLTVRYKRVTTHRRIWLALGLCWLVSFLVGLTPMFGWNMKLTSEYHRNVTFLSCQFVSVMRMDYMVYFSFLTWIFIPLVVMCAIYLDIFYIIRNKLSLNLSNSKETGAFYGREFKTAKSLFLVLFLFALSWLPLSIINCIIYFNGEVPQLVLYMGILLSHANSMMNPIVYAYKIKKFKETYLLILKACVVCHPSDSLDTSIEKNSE
- test.method.notes: biochemical
- Description: Displacement of [3H]HEMADO from human adenosine A3 receptor expressed in CHO cells measured by radioligand competition assay
observable: Ki (nM)
Report only the number, with the unit nM understood.

Check out these entries, answers already filled in.
[[record]]
substance_smiles = "CC(=O)COc1cc(C)cc2cc(-c3ccc(C)cc3)c(=O)oc12"
measurement_unit = "nM"
measurement = 634

[[record]]
substance_smiles = "Cc1ccc(-c2cc3cc(C)ccc3oc2=O)cc1"
measurement_unit = "nM"
measurement = 2680

[[record]]
substance_smiles = "CCOC(=O)c1c(NC(=O)c2sc(Nc3ccc(C)cc3)nc2-c2ccc(C)cc2)sc2c1CCCC2"
measurement_unit = "nM"
measurement = 2200

[[record]]
substance_smiles = "CCOc1cccc2cc(-c3ccccc3)c(=O)oc12"
measurement_unit = "nM"
measurement = 3930

[[record]]
substance_smiles = "Cc1ccc(Nc2nc(-c3ccc(C)cc3)c(C(=O)Nc3sc4c(c3C(N)=O)CCCC4)s2)cc1"
measurement_unit = "nM"
measurement = 330

[[record]]
substance_smiles = "Cc1ccc2oc(=O)c(NC(=O)c3ccccc3)cc2c1"
measurement_unit = "nM"
measurement = 3240

[[record]]
substance_smiles = "CCOc1cccc2cc(-c3ccc(OC)cc3)c(=O)oc12"
measurement_unit = "nM"
measurement = 258

[[record]]
substance_smiles = "COc1ccc(-c2cc3cccc(OC)c3oc2=O)cc1"
measurement_unit = "nM"
measurement = 5320


Please examine the following record next.
// query Ki value for entry `CCOC(=O)c1c(NC(=O)c2sc(Nc3ccc(OC)cc3)nc2-c2ccc(C)cc2)sc2c1CCCC2`
5200
